Test System: T1, biotinylated recombinant human trimeric ARG2 enzyme (Avi-huARG2-His10) (human, UniProt P78540 23-354, biotinylated)
T1 construct: also called avi-Arg2-His10; bio-ARG2
T1 chain: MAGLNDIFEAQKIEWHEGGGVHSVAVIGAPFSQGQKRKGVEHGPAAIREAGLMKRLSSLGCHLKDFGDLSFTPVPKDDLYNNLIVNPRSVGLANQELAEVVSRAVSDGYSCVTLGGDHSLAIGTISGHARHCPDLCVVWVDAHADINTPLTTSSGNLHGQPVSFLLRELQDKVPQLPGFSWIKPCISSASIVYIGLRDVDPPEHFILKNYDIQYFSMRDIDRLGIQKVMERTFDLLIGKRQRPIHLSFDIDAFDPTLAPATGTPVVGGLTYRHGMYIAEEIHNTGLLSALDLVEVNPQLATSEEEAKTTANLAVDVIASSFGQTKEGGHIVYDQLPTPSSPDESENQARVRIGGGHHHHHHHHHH
Method Notes: BLI (OctetRED), biotinylated ARG2 on streptavidin, Fab as analyte
Method: An Octet Kinetics Buffer (PBS containing 0.01% BSA and 0.002% Tween20) is typically used as the diluent buffer for the analyte samples and as the flow buffer during the dissociation phase. The experimental data is recorded over time as shift in interference pattern (nm) over time, which is directly proportional to the optical thickness at the biosensor tip, which in turn is an approximate measure of the mass of analyte bound. […]
Examples of binders with documented koff follow.
The answer is to be given in s⁻¹; state only the numeric part.

Look at this binder and give its reported koff. C0021092 Fab (Fab, V domains shown, Human Fab) VH: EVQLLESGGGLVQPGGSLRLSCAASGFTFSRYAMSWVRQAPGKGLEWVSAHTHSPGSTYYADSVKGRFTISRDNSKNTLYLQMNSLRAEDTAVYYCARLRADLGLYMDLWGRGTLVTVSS VL: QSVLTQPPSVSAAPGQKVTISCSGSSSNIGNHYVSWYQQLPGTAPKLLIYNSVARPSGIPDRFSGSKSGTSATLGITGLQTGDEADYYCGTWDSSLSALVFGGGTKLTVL
0.000755

What would you report for C0021032 Fab (Fab, V domains shown, Human Fab) VH: EVQLLESGGGLVQPGGSLRLSCAASGFTFSSYAMSWVRQAPGKGLEWVSAYGYGIGSTYYADSVKGRFTISRDNSKNTLYLQMNSLRAEDTAVYYCARLRADLGLYMDLWGRGTLVTVSS VL: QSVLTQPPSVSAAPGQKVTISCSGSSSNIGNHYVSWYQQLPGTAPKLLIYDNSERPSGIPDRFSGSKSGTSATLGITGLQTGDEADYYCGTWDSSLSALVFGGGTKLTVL ?
0.00228

What would you report for C0021022 Fab (Fab, V domains shown, Human Fab) VH: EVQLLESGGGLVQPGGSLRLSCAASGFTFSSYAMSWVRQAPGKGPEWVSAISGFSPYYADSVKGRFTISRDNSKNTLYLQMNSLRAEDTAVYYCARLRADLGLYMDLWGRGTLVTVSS VL: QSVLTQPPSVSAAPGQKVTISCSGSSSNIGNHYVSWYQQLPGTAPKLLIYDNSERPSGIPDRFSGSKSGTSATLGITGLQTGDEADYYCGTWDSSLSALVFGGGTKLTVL ?
0.00112
